Can you tell me pIC50 for the items I'm about to list?
# target.of.assay: PI3K-α (PIK3CA) in MDA-MB-453 cells (Homo sapiens, UniProt P42336)
# Sequence (P27986 2-724): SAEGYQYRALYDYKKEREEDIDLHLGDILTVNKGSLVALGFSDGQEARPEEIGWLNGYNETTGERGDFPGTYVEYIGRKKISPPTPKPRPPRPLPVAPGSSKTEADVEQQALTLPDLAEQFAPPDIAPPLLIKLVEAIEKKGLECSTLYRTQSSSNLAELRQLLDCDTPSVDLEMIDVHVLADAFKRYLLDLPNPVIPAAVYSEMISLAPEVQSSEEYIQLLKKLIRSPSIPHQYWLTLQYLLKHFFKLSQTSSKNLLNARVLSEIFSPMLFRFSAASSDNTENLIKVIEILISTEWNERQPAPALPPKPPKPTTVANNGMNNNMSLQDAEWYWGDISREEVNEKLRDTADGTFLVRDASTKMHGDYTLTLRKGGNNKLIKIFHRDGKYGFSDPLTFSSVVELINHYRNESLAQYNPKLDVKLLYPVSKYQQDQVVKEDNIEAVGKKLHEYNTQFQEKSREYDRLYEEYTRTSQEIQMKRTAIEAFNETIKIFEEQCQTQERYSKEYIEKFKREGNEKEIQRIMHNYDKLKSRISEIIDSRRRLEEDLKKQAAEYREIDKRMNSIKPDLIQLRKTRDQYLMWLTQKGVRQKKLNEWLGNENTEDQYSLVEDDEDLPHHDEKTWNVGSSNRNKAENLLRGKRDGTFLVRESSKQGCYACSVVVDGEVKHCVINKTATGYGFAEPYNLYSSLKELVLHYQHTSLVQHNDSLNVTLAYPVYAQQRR
# Sequence (P42336 whole entry): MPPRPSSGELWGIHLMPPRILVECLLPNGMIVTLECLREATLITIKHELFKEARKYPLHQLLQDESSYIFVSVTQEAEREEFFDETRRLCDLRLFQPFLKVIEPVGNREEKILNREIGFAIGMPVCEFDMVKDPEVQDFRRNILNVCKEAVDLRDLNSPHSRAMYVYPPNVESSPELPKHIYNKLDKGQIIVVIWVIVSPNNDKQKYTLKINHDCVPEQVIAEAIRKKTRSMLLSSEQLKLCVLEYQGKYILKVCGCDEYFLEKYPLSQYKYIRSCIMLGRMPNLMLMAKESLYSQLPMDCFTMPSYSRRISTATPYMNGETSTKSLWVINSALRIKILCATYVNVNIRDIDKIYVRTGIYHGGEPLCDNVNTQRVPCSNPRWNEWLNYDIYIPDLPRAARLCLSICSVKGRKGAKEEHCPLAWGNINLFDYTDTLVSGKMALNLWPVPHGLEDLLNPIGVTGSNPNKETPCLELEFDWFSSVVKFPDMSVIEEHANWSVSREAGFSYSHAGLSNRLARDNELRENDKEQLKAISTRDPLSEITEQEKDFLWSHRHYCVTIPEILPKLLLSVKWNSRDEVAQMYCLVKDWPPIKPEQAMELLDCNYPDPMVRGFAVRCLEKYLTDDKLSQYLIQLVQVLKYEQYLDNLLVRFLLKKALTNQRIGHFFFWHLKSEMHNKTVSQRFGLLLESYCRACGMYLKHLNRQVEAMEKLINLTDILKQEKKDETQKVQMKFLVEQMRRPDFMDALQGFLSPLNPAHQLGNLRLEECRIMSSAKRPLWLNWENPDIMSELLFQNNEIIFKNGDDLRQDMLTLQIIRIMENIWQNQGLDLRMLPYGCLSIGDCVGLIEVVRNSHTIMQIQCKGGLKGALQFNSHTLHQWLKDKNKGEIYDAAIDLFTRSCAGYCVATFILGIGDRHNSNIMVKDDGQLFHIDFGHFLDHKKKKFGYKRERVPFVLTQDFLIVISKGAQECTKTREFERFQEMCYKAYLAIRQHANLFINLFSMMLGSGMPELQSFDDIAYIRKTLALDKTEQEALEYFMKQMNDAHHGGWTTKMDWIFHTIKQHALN
# assay.name: PI3K-alpha kinase (PIK3CA) in vitro cell based assay, MDA-MB-453 cells, SureFire Ultra AlphaLisa
# experimental.setup: read-out: PI3K-α (PIK3CA) in vitro cell based assay IC50
pIC50: −log10 of the molar value.

pIC50 reading for Cc1cc(-c2cc(=O)c3cc(C(F)(F)F)cc(C(C)Nc4ccc(Cl)nc4C(=O)O)c3o2)cc2cn(C)nc12 (single isomer, unassigned) [Example 192] : < 6.30

Sample Cc1cc(C(C)Nc2ccc(Cl)nc2C(=O)O)c2oc(-c3ccc4c(cnn4C)c3)cc(=O)c2c1 (single isomer, unassigned) [Example 217] ; pIC50 observed: < 6.30

Record summary for Cc1cc(C(C)Nc2ccccc2C(=O)O)c2oc(-c3ccc4c(c3)CN(C)C4=O)cc(=O)c2c1 (single isomer, unassigned) : reported pIC50 = < 6.30

Memo: Cc1cc([C@@H](C)Nc2ccc(C(F)(F)F)nc2C(=O)O)c2oc(-c3ccc4nc(C)sc4n3)c(C)c(=O)c2c1 , reported pIC50: 6.30 to 7.00

Value of pIC50 reported for the compound Cc1cc(C(C)Nc2ccc(Cl)nc2C(=O)O)c2oc(-c3ccc4c(cnn4C)c3)cc(=O)c2c1 (single isomer, unassigned) [Example 218] is > 7.30

Reported pIC50 of Cc1cc([C@@H](C)Nc2cccc(F)c2C(=O)O)c2oc(-c3nn(C)c4ccccc34)c(C)c(=O)c2c1 : 7.00 to 7.30

----------
# target.of.assay: PI3K-α (PIK3CA) H1047R mutant, p110α/p85α complex (Homo sapiens, UniProt P42336, H1047R)
# Construct: Recombinant, catalytically active human full length PIK3KA Wild-type and H1047R mutant; 6×His (N); purchased EMD Millipore Sigma 14-792M
# Sequence (P42336 whole entry H1047R): as the sequence (P42336 whole entry) above, with H1047R counted along it
# Sequence (P27986 whole entry partner): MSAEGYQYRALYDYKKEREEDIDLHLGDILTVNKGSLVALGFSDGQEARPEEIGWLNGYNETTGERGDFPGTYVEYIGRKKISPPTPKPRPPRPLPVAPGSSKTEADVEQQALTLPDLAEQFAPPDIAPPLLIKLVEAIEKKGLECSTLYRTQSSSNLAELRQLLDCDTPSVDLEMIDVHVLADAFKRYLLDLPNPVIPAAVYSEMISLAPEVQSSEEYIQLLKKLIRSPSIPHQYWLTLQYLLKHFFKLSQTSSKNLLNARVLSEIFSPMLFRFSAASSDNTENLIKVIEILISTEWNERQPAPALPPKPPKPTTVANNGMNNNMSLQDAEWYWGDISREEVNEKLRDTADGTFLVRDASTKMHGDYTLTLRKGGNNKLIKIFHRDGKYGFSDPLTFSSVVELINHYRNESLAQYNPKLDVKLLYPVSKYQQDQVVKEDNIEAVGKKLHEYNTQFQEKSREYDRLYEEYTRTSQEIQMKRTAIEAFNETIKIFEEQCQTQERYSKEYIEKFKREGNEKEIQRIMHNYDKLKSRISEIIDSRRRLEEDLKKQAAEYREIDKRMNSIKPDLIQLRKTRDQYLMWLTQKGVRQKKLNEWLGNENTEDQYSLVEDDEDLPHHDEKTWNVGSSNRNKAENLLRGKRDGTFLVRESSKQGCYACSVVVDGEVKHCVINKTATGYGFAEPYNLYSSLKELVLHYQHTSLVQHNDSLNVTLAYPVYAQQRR
# assay.name: PI3K-alpha kinase (PIK3CA) biochemical activity, ADP-Glo, H1047R mutant
# experimental.setup: Soy PI lipid substrate
measured.attribute: IC50

get_value(item= Cc1cc(C(C)Nc2ccccc2C(=O)O)c2oc(-c3cccc4c3OCO4)c(C)c(=O)c2c1 (single isomer, unassigned) [Example 92] , readout=IC50) returns < 0.5 µM

Record summary for Cc1cc(C(C)Nc2ccccc2C(=O)O)c2oc(-c3ccc4c(c3)OCO4)c(C)c(=O)c2c1 (single isomer, unassigned) [Example 93] : reported IC50 = < 0.5 µM

Cc1cc([C@@H](C)Nc2cccc(F)c2C(=O)O)c2oc(-c3ccc4cc[nH]c4n3)cc(=O)c2c1 [Example 241] has a reported IC50 of < 0.5 µM

----------
# target.of.assay: PI3K-α (PIK3CA) H1047R mutant, p110α/p85α complex (Homo sapiens, UniProt P42336, H1047R)
# Construct: Recombinant, catalytically active human full length PIK3KA Wild-type and H1047R mutant; 6×His (N); purchased EMD Millipore Sigma 14-792M
# assay.name: PI3K-alpha kinase (PIK3CA) biochemical activity, ADP-Glo, H1047R mutant
# experimental.setup: Soy PI lipid substrate
Answer each item with its documented IC50.

Record for Cc1cc(C(C)Nc2ccccc2C(=O)O)c2oc(-c3ccc4ccnn4c3)c(C)c(=O)c2c1 (single isomer, unassigned) under target or system PI3K-α (PIK3CA) H1047R mutant, p110α/p85α complex (Homo sapiens, UniProt P42336, H1047R): IC50 reported as < 500 nM

The recorded IC50 with PI3K-α (PIK3CA) H1047R mutant, p110α/p85α complex (Homo sapiens, UniProt P42336, H1047R) for Cc1cc(C(C)Nc2ccccc2C(=O)O)c2oc(-c3ccc4nc(C)cn4c3)cc(=O)c2c1 (single isomer, unassigned) [Example 37] was > 10000 nM

With PI3K-α (PIK3CA) H1047R mutant, p110α/p85α complex (Homo sapiens, UniProt P42336, H1047R) as the test system, Cc1cc(C(C)Nc2ccccc2C(=O)O)c2oc(-c3cc4ccncc4o3)c(C)c(=O)c2c1 (single isomer, unassigned) showed IC50 of < 500 nM

From: patent US11878970B2
